Target: T1, native human glycophorin A protein (human, UniProt P02724 20-150)
T1 construct: mature; also called Hu-nat GPA
T1 sequence (looked up): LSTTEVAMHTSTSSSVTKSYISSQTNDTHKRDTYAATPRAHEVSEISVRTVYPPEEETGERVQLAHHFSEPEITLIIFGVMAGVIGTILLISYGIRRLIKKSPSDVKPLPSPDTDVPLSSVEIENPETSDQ
Assay: ELISA, Fab on coated native human GPA
Recorded Metric: binding in ELISA relative to parental Fab

1) TPP-5840, Hu6C12-24 Fab variant VL: (S24R, A26S, S49A, P54Q, F95Y); VH: (L70M, T72R) (Fab, V domains shown, Built on the parental Fab TPP-4935) VH: EVQLVQSGAEVKKPGASVKVSCKASGYTFTTYTIHWVRQAPGQGLEWIGYINPSSDYTRYNPKFKDRVTMTRDKSTSTAYMELRSLRSDDTAVYYCQTGTRDYWGQGTTVTVSS VL: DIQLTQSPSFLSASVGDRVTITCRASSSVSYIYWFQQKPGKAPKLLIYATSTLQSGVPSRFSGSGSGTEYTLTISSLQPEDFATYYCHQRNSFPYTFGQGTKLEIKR	5.3 relative to parental Fab
2) TPP-5838, Hu6C12-24 Fab variant VL: (S24R, A26S, S49A, P54Q, F95Y); VH: (I48M, D66G, L70M) (Fab, V domains shown, Built on the parental Fab TPP-4935) VH: EVQLVQSGAEVKKPGASVKVSCKASGYTFTTYTIHWVRQAPGQGLEWMGYINPSSDYTRYNPKFKGRVTMTTDKSTSTAYMELRSLRSDDTAVYYCQTGTRDYWGQGTTVTVSS VL: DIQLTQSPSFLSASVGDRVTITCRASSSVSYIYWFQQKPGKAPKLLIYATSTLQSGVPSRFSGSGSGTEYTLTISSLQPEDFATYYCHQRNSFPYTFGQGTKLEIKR	5.6 relative to parental Fab
3) TPP-5906, humanized and germlined 6C12 Fab; VL: (S24R, A26S, S49A, P54Q, F95Y); VH: (I48M, D56G, D66G, L70M, T72R) (Fab, V domains shown, The text says that a 6xHIS tag is present on the Fabs in the peptide ELISA; it is not in the printed chains) VH: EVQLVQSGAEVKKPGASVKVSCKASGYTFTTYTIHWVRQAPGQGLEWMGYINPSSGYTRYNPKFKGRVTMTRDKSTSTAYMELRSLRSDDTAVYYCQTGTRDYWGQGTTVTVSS VL: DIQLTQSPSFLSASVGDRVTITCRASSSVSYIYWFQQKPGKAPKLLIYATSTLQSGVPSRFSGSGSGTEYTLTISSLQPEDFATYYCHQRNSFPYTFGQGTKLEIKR	12.9 relative to parental Fab
4) TPP-5695, Hu6C12-24 Fab variant VH: (L70M, T72R) (Fab, V domains shown, Built on the parental Fab TPP-4935) VH: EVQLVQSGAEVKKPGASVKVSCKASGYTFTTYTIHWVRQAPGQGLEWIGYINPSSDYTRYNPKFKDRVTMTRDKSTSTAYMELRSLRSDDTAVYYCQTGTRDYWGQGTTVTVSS VL: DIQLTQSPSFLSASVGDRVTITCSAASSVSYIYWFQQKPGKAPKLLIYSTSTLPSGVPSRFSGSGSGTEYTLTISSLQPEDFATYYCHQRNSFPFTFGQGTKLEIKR	0.9 relative to parental Fab
5) TPP-5696, Hu6C12-24 Fab variant VH: (D66G, L70M) (Fab, V domains shown, Built on the parental Fab TPP-4935) VH: EVQLVQSGAEVKKPGASVKVSCKASGYTFTTYTIHWVRQAPGQGLEWIGYINPSSDYTRYNPKFKGRVTMTTDKSTSTAYMELRSLRSDDTAVYYCQTGTRDYWGQGTTVTVSS VL: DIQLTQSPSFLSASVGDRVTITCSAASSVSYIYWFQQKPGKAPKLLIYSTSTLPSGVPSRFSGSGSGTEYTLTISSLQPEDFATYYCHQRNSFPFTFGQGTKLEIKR	1.3 relative to parental Fab

Where these numbers come from: patent US20190359687A1
